These entries and their values trace back to patent US9359298B2.

# Tested on: Influenza A virus (hanfang359/95)
# Assay overview: Determination of anti-influenza virus activity (CPE in MDCK cells)
# Type: cell-based
# Test parameters: Influenza A virus, MDCK, 36 h
Rule for this label: 1 means IC50 is less than 2 µg/mL; 0 means IC50 is at least 2 µg/mL.

Consider the compound `COc1cc(/C=C/c2ccccc2)c(C(N)=O)c(O)c1CC=C(C)C` . Is its IC50 strictly less than 2 µg/mL? 1

Consider the compound COc1cc(/C=C/c2ccccc2)c(C(=O)O)c(OC(=O)CN(C)C)c1CC=C(C)C [Compound 24n] . Is its IC50 strictly less than 2 µg/mL? 0

Consider the compound `CC/C=C/c1cc(OC)c(CC=C(C)C)c(O)c1C(=O)OC` . Is its IC50 strictly less than 2 µg/mL? 1

Consider the compound `COc1cc(/C=C/c2ccccc2)c(C(=O)NC2CCNCC2)c(O)c1CC=C(C)C` . Is its IC50 strictly less than 2 µg/mL? 1

Consider the compound COc1cc(/C=C/c2ccccc2)cc(OC(=O)CN)c1CC=C(C)C [Compound 24c] . Is its IC50 strictly less than 2 µg/mL? 1

----------
# Test system: HIV-1 III B virus
# Assay overview: Anti-HIV activity assay (P24 antigen in MT-4 cells)
# Type: cell-based
# Test parameters: Human immunodeficiency virus 1, MT4, 96 h, MT-4 cells, HIV-1 III B 100TCID50, 96 h, P24 antigen; read-out: HIV IC50
Consider the following compounds; for each one, report its log10(IC50).
The figures below represent log10 of IC50, where IC50 is stated in µg/mL.

Which measured log10(IC50) value corresponds to `COC(=O)c1c(/C=C/c2ccccc2)cc(OC)c(CC=C(C)C)c1OC` ? 0.12

Which measured log10(IC50) value corresponds to `COc1cc(/C=C/c2ccccc2)c(C(=O)O)c(OC)c1CC=C(C)C` ? 0.16

Which measured log10(IC50) value corresponds to COc1cc(/C=C/c2ccccc2)cc(OCN)c1CC=C(C)C [Compound 26c] ? 0.50

Which measured log10(IC50) value corresponds to `COc1cc(/C=C/c2cccc(O)n2)c(C(=O)O)c(O)c1CC=C(C)C` ? 0.21

Which measured log10(IC50) value corresponds to `COc1cc(/C=C/c2cccc(C)c2)c(C(=O)O)c(O)c1CC=C(C)C` ? 0.16

Which measured log10(IC50) value corresponds to COc1cc(/C=C/c2cccc(O)n2)cc(O)c1CC=C(C)C [10g′] ? 0.59

Which measured log10(IC50) value corresponds to `COc1cc(/C=C/c2ccc(O)cn2)c(C(=O)O)c(O)c1CC=C(C)C` ? -0.20

Which measured log10(IC50) value corresponds to COC(=O)c1c(/C=C/c2ccccc2)cc(OC)c(CC=C(C)C)c1OC(=O)CN [Compound 24a] ? 0.25

Which measured log10(IC50) value corresponds to COC(=O)c1c(/C=C/c2ccccc2)cc(OC)c(CC=C(C)C)c1OC(=O)C(=O)O [Compound 31a] ? 0.11

Which measured log10(IC50) value corresponds to COc1cc(/C=C/c2cc(O)c(O)c(O)c2)cc(OC)c1 [Compound 21j] ? 0.02

Which measured log10(IC50) value corresponds to C/C(=C\c1cc(O)cc(O)c1)c1cc(O)cc(O)c1 [Compound 21h] ? 0.72

Which measured log10(IC50) value corresponds to COc1cc(/C=C/c2ccccc2)cc(OC(=O)c2cccnc2)c1CC=C(C)C [Compound 24l] ? 0.15

Which measured log10(IC50) value corresponds to COc1ccc(/C=C/c2cc(O)c(CC=C(C)C)c(OC)c2)cc1 [Compound 10c] ? -0.46

Which measured log10(IC50) value corresponds to `COc1cc(/C=C/c2ccccc2)cc(O)c1CC=C(C)C` ? -0.68

Which measured log10(IC50) value corresponds to COc1cc(/C=C/Cc2ccccc2)cc(O)c1CC=C(C)C [Compound 10k] ? 0.03

Which measured log10(IC50) value corresponds to COc1cc(/C=C/c2ccccc2)cc(OC(=N)N)c1CC=C(C)C [Compound 27c] ? 0.31

Which measured log10(IC50) value corresponds to `COC(=O)c1c(/C=C/c2ccc(OC)cc2)cc(OC)c(CC=C(C)C)c1O` ? 0.30

Which measured log10(IC50) value corresponds to COc1cc(/C=C/c2ccccc2)cc(OC(=O)CN)c1CC=C(C)C [Compound 24c] ? 0.44

Which measured log10(IC50) value corresponds to `COC(=O)c1c(/C=C(\C)c2ccccc2)cc(OC)c(CC=C(C)C)c1O` ? 0.58

----------
# Test system: HIV-1 III B virus
# Assay overview: Anti-HIV activity assay (P24 antigen in MT-4 cells)
# Assay type: cell-based
# Test parameters: Human immunodeficiency virus 1, MT4, 96 h, MT-4 cells, HIV-1 III B 100TCID50, 96 h, P24 antigen; read-out: HIV IC50
Rule for this label: Satisfied means IC50 is less than 1 µg/mL; Not satisfied means IC50 is at least 1 µg/mL.

Consider the compound COc1cc(/C=C/c2ccccc2)cc(O)c1C/C=C(\C)CCC=C(C)C [Compound 10o] . Is its IC50 strictly less than 1 µg/mL? Satisfied

Consider the compound `COC(=O)c1c(/C=C/c2ccncc2)cc(OC)c(CC=C(C)C)c1O` . Is its IC50 strictly less than 1 µg/mL? Not satisfied

Consider the compound COc1cc(/C=C/Cc2ccccc2)cc(OC)c1 [Compound 21a] . Is its IC50 strictly less than 1 µg/mL? Not satisfied

Consider the compound COc1cc(/C=C/c2cc(O)cc(O)n2)cc(O)c1CC=C(C)C [10e′] . Is its IC50 strictly less than 1 µg/mL? Satisfied

Consider the compound COc1cc(/C=C/c2cccc(C)c2)cc(O)c1CC=C(C)C [Compound 10f] . Is its IC50 strictly less than 1 µg/mL? Satisfied

Consider the compound COc1cccc(OC)c1/C=C/c1cc(O)c(CC=C(C)C)c(OC)c1 [Compound 10d] . Is its IC50 strictly less than 1 µg/mL? Not satisfied

Consider the compound `COC(=O)c1c(/C=C/C2CCCCC2)cc(OC)c(CC=C(C)C)c1O` . Is its IC50 strictly less than 1 µg/mL? Not satisfied

Consider the compound COC(=O)c1c(/C=C/c2ccccc2)cc(OC)c(CC=C(C)C)c1OC(=N)N [Compound 27a] . Is its IC50 strictly less than 1 µg/mL? Not satisfied

----------
Consider the following molecules; for each one, report its IC50.
# Test system: Coxsackie virus B6
# Assay overview: Coxsackie virus activity assay (CPE in Vero cells)
# Assay type: cell-based
# Test parameters: Vero, read-out: COX-B6 IC50, Vero cells, about 100TCID50, CPE, Reed-Muench
The response must be a number in µg/mL with no trailing unit.

Which measured IC50 value corresponds to COc1cc(/C=C/c2cccc(O)n2)c(C(=O)O)c(O)c1CC=C(C)C [1c′] ? 2.56

Which measured IC50 value corresponds to COc1cc(/C=C/c2ccccc2)cc(OC(=N)N)c1CC=C(C)C [Compound 27c] ? 0.92

Which measured IC50 value corresponds to COc1cc(/C=C/c2ccccc2)cc(O)c1CC=C(C)C [Compound 10, Cajanine A] ? 0.69

Which measured IC50 value corresponds to COc1cc(/C=C/c2cccs2)c(C(=O)O)c(O)c1CC=C(C)C [Compound 1j] ? 2.13

Which measured IC50 value corresponds to COc1cc(/C=C/c2cc(O)c(CC=C(C)C)c(OC)c2)nc(OC)c1 [10d′] ? 0.35

Which measured IC50 value corresponds to COc1cc(/C=C/c2ccccc2)c(C(=O)O)c(OC(=N)N)c1CC=C(C)C [Compound 27b] ? 1.24

Which measured IC50 value corresponds to COc1cc(/C=C/c2cccc(C)c2)c(C(=O)O)c(O)c1CC=C(C)C [Compound 1f] ? 4.65

Which measured IC50 value corresponds to COc1cc(/C=C/c2ccccc2)c(C(=O)O)c(OC(=O)c2cccnc2)c1CC=C(C)C [Compound 24k] ? 1.36

Which measured IC50 value corresponds to COc1cc(/C=C/c2cc(O)cc(O)n2)c(C(=O)O)c(O)c1CC=C(C)C [1a′] ? 0.36

Which measured IC50 value corresponds to COc1ccnc(/C=C/c2cc(OC)c(CC=C(C)C)c(O)c2C(=O)O)c1 [Compound 1v] ? 1.25

Which measured IC50 value corresponds to COC(=O)c1c(/C=C/c2ccc(OC(C)=O)cc2)cc(OC)c(CC=C(C)C)c1O [Compound 8q] ? 5.23

Which measured IC50 value corresponds to COc1cc(/C=C/c2ccccc2)c(C(=O)n2ccnc2)c(O)c1CC=C(C)C [Compound 22] ? 2.37

Which measured IC50 value corresponds to COc1cc(/C=C/c2ccccc2)cc(OC(=O)c2cnc[nH]2)c1CC=C(C)C [Compound 24r] ? 0.68
